Target: T1, Human BCMA (human, UniProt Q02223 1-54, limits assumed)
T1 construct: Soluble analyte in SPR; construct not described; also called huBCMA; B-cell maturation antigen
T1 sequence (looked up): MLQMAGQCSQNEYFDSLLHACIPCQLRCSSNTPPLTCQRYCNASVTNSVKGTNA
Assay: SPR, IgG immobilised, 25 C
# maps each entry to its Kd
MEASURE_NAME: Kd (nM)

1) L1.GDF/L3.KW/H3.AQ (antibody, V domains shown, IgG) VH: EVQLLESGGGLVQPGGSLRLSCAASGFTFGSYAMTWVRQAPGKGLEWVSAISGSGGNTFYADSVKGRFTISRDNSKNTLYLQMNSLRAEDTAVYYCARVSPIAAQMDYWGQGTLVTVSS VL: EIVLTQSPGTLSLSPGERATLSCRASQSVGDFYLAWYQQKPGQAPRLLIYGASSRATGIPDRFSGSGSGTDFTLTISRLEPEDFAVYYCKHYGWPPSFTFGQGTKVEIK	4.37
2) L1.LGF/L3.KW/P6E01 (antibody, V domains shown, IgG) VH: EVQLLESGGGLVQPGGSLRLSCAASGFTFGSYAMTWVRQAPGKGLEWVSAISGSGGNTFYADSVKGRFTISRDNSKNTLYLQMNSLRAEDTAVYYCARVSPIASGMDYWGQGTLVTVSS VL: EIVLTQSPGTLSLSPGERATLSCRASQSLGSFYLAWYQQKPGQAPRLLIYGASSRATGIPDRFSGSGSGTDFTLTISRLEPEDFAVYYCKHYGWPPSFTFGQGTKVEIK	9.08
3) L1.GDF/L3.KW/H3.AL (antibody, V domains shown, IgG) VH: EVQLLESGGGLVQPGGSLRLSCAASGFTFGSYAMTWVRQAPGKGLEWVSAISGSGGNTFYADSVKGRFTISRDNSKNTLYLQMNSLRAEDTAVYYCARVSPIAALMDYWGQGTLVTVSS VL: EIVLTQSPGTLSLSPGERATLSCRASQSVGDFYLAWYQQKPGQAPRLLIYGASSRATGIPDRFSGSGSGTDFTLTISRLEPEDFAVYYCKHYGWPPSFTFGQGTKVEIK	8.76

Entry source: patent US20160297884A1
